# system_name: PPARG (peroxisome proliferator activated receptor-gamma), GST-PPARG-LBD (Homo sapiens, UniProt P37231)
# Construct: 15 μL of 5 nM GST-PPARG-LBD and 5 nM Tb-GST-antibody were added; purchased Invitrogen PV4894
# Sequence (P37231 238-503 limits assumed): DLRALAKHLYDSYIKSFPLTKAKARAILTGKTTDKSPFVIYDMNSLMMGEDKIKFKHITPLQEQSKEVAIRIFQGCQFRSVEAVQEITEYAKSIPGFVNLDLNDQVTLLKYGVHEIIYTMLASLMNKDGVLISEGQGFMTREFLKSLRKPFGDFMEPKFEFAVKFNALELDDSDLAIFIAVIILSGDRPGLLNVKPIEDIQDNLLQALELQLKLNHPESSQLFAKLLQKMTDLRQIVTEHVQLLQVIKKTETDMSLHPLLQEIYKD
# procedure_text: LanthaScreen TR-FRET PPARG Competitive Binding Assay
# Set-up: key: “+” indicates the degree of the binding activity, and as the number of “+” increases, the binding activity is stronger; ++: “+” indicates the degree of the binding activity, and as the number of “+” increases, the binding activity is stronger; +++: “+” indicates the degree of the binding activity, and as the number of “+” increases, the binding activity is stronger; ++++: “+” indicates the degree of the binding activity, and as the number of “+” increases, the binding activity is stronger
# condition_details: degree of binding activity
readout_kind: Binding assay (1 μLM)

Recorded results for 5 compounds are shown here.
C[C@H](NC(=O)c1ccc2c(c1)CCCN2Cc1ccc(-c2ccccc2C(N)=O)cc1)c1cccc(Cl)c1 = +++
NC(=O)c1ccccc1-c1ccc(CN2CCCc3cc(C(=O)NCc4cccc(OC(F)(F)F)c4)ccc32)cc1 = +++
Cc1ccc([C@H](C)NC(=O)c2ccc3c(c2)OCCN3Cc2ccc(-c3ccccc3C(=O)O)cc2)cc1F = ++
Cc1ccc([C@H](C)NC(=O)c2ccc3c(c2)CCCN3Cc2ccccc2-c2ccc(C(=O)O)cc2)cc1F = +
Cc1ccc([C@H](C)NC(=O)c2ccc3c(c2)CCCN3Cc2cccc(-c3ccccc3C(=O)O)c2F)cc1F = +++

[ask] Report Binding assay (1 μLM) for NC(=O)c1ccccc1-c1ccc(CN2CCOc3cc(C(=O)NCc4ccc5c(c4)OCCO5)ccc32)cc1
[reply] +

[ask] Read off the recorded Binding assay (1 μLM) for O=C(NCc1ccco1)c1ccc2c(c1)OCCN2Cc1ccc(-c2ccccc2C(=O)O)cc1
[reply] +
